details: in ethanol, 308.15 K
Quantity name: solubility (mole fraction)

>  <Smiles entry>
Cc1nc(-c2ccc(OCC(C)C)c(C#N)c2)sc1C(=O)O

>  <Quantity name>
solubility (mole fraction)

>  <Reported measurement>
0.00401

$$$$

###

conditions: in ethanol, 323.15 K

>  <Smiles entry>
Cc1nc(-c2ccc(OCC(C)C)c(C#N)c2)sc1C(=O)O

>  <solubility (mole fraction)>
0.0109

$$$$

###

settings: in acetone, 298.15 K

>  <Smiles entry>
Cc1nc(-c2ccc(OCC(C)C)c(C#N)c2)sc1C(=O)O

>  <solubility (mole fraction)>
0.00743

$$$$

###

conditions: in ethyl acetate, 323.15 K

>  <Smiles entry>
Cc1nc(-c2ccc(OCC(C)C)c(C#N)c2)sc1C(=O)O

>  <solubility (mole fraction)>
0.00975

$$$$

###

details: in acetone, 303.15 K

>  <Smiles entry>
Cc1nc(-c2ccc(OCC(C)C)c(C#N)c2)sc1C(=O)O

>  <solubility (mole fraction)>
0.00921

$$$$

###

settings: in ethanol, 313.15 K
Quantity name: solubility (mole fraction)

>  <Smiles entry>
Cc1nc(-c2ccc(OCC(C)C)c(C#N)c2)sc1C(=O)O

>  <Quantity name>
solubility (mole fraction)

>  <Reported measurement>
0.00584

$$$$

###

conditions: in methanol, 298.15 K
Quantity name: solubility (mole fraction)

>  <Smiles entry>
Cc1nc(-c2ccc(OCC(C)C)c(C#N)c2)sc1C(=O)O

>  <Quantity name>
solubility (mole fraction)

>  <Reported measurement>
0.000856

$$$$

###

conditions: in acetone, 308.15 K

>  <Smiles entry>
Cc1nc(-c2ccc(OCC(C)C)c(C#N)c2)sc1C(=O)O

>  <solubility (mole fraction)>
0.0107

$$$$

###

conditions: in ethanol, 298.15 K
Quantity name: solubility (mole fraction)

>  <Smiles entry>
Cc1nc(-c2ccc(OCC(C)C)c(C#N)c2)sc1C(=O)O

>  <Quantity name>
solubility (mole fraction)

>  <Reported measurement>
0.00177

$$$$

###

conditions: in methanol, 303.15 K

>  <Smiles entry>
Cc1nc(-c2ccc(OCC(C)C)c(C#N)c2)sc1C(=O)O

>  <solubility (mole fraction)>
0.00117

$$$$

###

details: in ethyl acetate, 313.15 K
Quantity name: solubility (mole fraction)

>  <Smiles entry>
Cc1nc(-c2ccc(OCC(C)C)c(C#N)c2)sc1C(=O)O

>  <Reported measurement>
0.00732

$$$$

###

settings: in acetone, 318.15 K

>  <Smiles entry>
Cc1nc(-c2ccc(OCC(C)C)c(C#N)c2)sc1C(=O)O

>  <solubility (mole fraction)>
0.0147

$$$$

###

conditions: in methanol, 313.15 K

>  <Smiles entry>
Cc1nc(-c2ccc(OCC(C)C)c(C#N)c2)sc1C(=O)O

>  <solubility (mole fraction)>
0.00229

$$$$

###

details: in ethyl acetate, 303.15 K
Quantity name: solubility (mole fraction)

>  <Smiles entry>
Cc1nc(-c2ccc(OCC(C)C)c(C#N)c2)sc1C(=O)O

>  <Quantity name>
solubility (mole fraction)

>  <Reported measurement>
0.00516

$$$$

###

details: in acetone, 293.15 K
Quantity name: solubility (mole fraction)

>  <Smiles entry>
Cc1nc(-c2ccc(OCC(C)C)c(C#N)c2)sc1C(=O)O

>  <Quantity name>
solubility (mole fraction)

>  <Reported measurement>
0.00623

$$$$
